Data provenance: the supplement of paper PMC9694430

Listed below: thermal shift delta Tm values for each entry.
# System: LOC_OS01G67340-cb003;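 note: purified Escherichia coli-expressed rice kinase domain construct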
# Measurement Description: thermal shift delta Tm vs DMSO control; higher = stronger stabilization (binding)
# Study Conditions: 12.5 µM; protein concentration 2 µM

{"Molecule": "COc1ccc(Oc2cc(NCCC(F)(F)F)c3ncc(-c4ccc(C(=O)NC5CC5)c(C)c4)n3n2)c(F)c1F", "Study Target": "LOC_OS01G67340-cb003", "thermal shift delta Tm": "1 °C"}
{"Molecule": "C#Cc1cccc(Nc2ncnc3cc(OCCOC)c(OCCOC)cc23)c1 [Erlotinib]", "Study Target": "LOC_OS01G67340-cb003", "thermal shift delta Tm": "0.02 °C"}
{"Molecule": "CO[C@H]1C[C@@H]2CC[C@@H](C)[C@@](O)(O2)C(=O)C(=O)N2CCCC[C@H]2C(=O)O[C@H]([C@H](C)C[C@@H]2CC[C@@H](OC(=O)C(C)(CO)CO)[C@H](OC)C2)CC(=O)[C@H](C)/C=C(\\C)[C@@H](O)[C@@H](OC)C(=O)[C@H](C)C[C@H](C)/C=C/C=C/C=C/1C", "Study Target": "LOC_OS01G67340-cb003", "thermal shift delta Tm": "-0.48 °C"}
{"Molecule": "O=C(O)c1ccc2c3c1cccc3c(=O)n1c3ccccc3nc21", "Study Target": "LOC_OS01G67340-cb003", "thermal shift delta Tm": "1 °C"}
{"Molecule": "CN1CC[C@H](c2c(O)cc(O)c3c(=O)cc(-c4ccccc4Cl)oc23)[C@H](O)C1 [Flavopiridol (Alvocidib)]", "Study Target": "LOC_OS01G67340-cb003", "thermal shift delta Tm": "-0.01 °C"}
{"Molecule": "CCn1c(=O)c(-c2cc[nH]n2)cc2c(C)nc(N)nc21", "Study Target": "LOC_OS01G67340-cb003", "thermal shift delta Tm": "0.34 °C"}
{"Molecule": "COc1cc2nccc(Oc3ccc(NC(=O)Nc4cc(C)on4)c(Cl)c3)c2cc1OC [Tivozanib (AV-951)]", "Study Target": "LOC_OS01G67340-cb003", "thermal shift delta Tm": "0.1 °C"}
{"Molecule": "CONC(=O)c1ccccc1Nc1cc(Nc2cc(C)nn2C(C)C)ncc1Cl", "Study Target": "LOC_OS01G67340-cb003", "thermal shift delta Tm": "0.98 °C"}
{"Molecule": "Cc1ccc(CNc2ncnc3ccc(-c4ccc(CO)o4)cc23)o1", "Study Target": "LOC_OS01G67340-cb003", "thermal shift delta Tm": "-0.04 °C"}
{"Molecule": "Cc1c[nH]c2nc(Nc3ccc(N4CCN(C)CC4)c(F)c3)nc(-c3cccc(CC#N)c3)c12", "Study Target": "LOC_OS01G67340-cb003", "thermal shift delta Tm": "11.9 °C"}
{"Molecule": "CCCS(=O)(=O)Nc1ccc(F)c(C(=O)c2c[nH]c3ncc(Cl)cc23)c1F", "Study Target": "LOC_OS01G67340-cb003", "thermal shift delta Tm": "-0.05 °C"}
{"Molecule": "CN(c1ccccc1CNc1nc(Nc2ccc3c(c2)CC(=O)N3)ncc1C(F)(F)F)S(C)(=O)=O", "Study Target": "LOC_OS01G67340-cb003", "thermal shift delta Tm": "3.07 °C"}
{"Molecule": "Cn1c(=O)c(Oc2ccc(F)cc2F)cc2cnc(NC(CCO)CCO)nc21", "Study Target": "LOC_OS01G67340-cb003", "thermal shift delta Tm": "0.29 °C"}
{"Molecule": "C[C@@H](Oc1cc(-n2cnc3ccc(CN4CCN(C)CC4)cc32)sc1C(N)=O)c1ccccc1C(F)(F)F", "Study Target": "LOC_OS01G67340-cb003", "thermal shift delta Tm": "0.69 °C"}
{"Molecule": "CC(C)c1ccc2oc3nc(N)c(C(=O)O)cc3c(=O)c2c1 [Amlexanox]", "Study Target": "LOC_OS01G67340-cb003", "thermal shift delta Tm": "0.99 °C"}
